Taken from PubChem BioAssay AID2060888.

- System: 695427-040-R-J1-PDC complex spheroid viability
- Procedure summary: Anticancer human tumor 695427-040-R-J1-PDC patient-derived colon adenocarcinoma cell line growth inhibition [RAS]
- Experimental context: second compound 0.0949 µM; first compound 0.0949 µM; hits give low values
Exercise: state measured viability, T/C for each of the compounds provided.
Answers are plain numbers, in %.

Batch of 4 compounds: report viability, T/C for each.
1. CC1(C)CCC(Nc2ncc(C(F)(F)F)c(-c3c[nH]c4c(P(C)(C)=O)c(C#N)ccc34)n2)CN1 (centres undefined) + CCn1c(-c2cccnc2C(C)OC)c2c3cc(ccc31)N1CCOC(CC(NC(=O)C(C(C)C)N(C)C(=O)C3(F)CCN(C(=O)C#CC(C)(C)N(C)C)CC3)C(=O)N3CCCC(N3)C(=O)OCC(C)(C)C2)C1
2. CC1(C)CCC(Nc2ncc(C(F)(F)F)c(-c3c[nH]c4c(P(C)(C)=O)c(C#N)ccc34)n2)CN1 (centres undefined) + CCn1c(-c2cc(N3CCN(C)CC3)cnc2C(C)OC)c2c3cc(ccc31)-c1csc(n1)CC(NC(=O)C1CC1C)C(=O)N1CCCC(N1)C(=O)OCC(C)(C)C2
3. CCc1c2c(nc3ccc(O)cc13)-c1cc3c(c(=O)n1C2)COC(=O)[C@]3(O)CC + CCn1c(-c2cc(N3CCN(C)CC3)cnc2C(C)OC)c2c3cc(ccc31)-c1csc(n1)CC(NC(=O)C1CC1C)C(=O)N1CCCC(N1)C(=O)OCC(C)(C)C2
4. CCc1c2c(nc3ccc(O)cc13)-c1cc3c(c(=O)n1C2)COC(=O)[C@]3(O)CC + CCn1c(-c2cccnc2C(C)OC)c2c3cc(ccc31)N1CCOC(CC(NC(=O)C(C(C)C)N(C)C(=O)C3(F)CCN(C(=O)C#CC(C)(C)N(C)C)CC3)C(=O)N3CCCC(N3)C(=O)OCC(C)(C)C2)C1

Result:
1. 93.3
2. 45.6
3. 30.7
4. 57

----------
- Tested on: 695427-040-R-J1-PDC complex spheroid viability
- Procedure summary: Anticancer human tumor 695427-040-R-J1-PDC cell line growth inhibition [RAS];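 note: viability read after seven days of drug exposure; 100% = DMSO vehicle control viability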
- Experimental context: second compound 0.3 µM; first compound 0.01 µM; hits give low values
Measured parameter: viability, T/C (%)
One number for each entry, in %.

// solved cases for viability, T/C follow
Ask: I have this compound here, CCN1CCN(Cc2ccc(Nc3ncc(F)c(-c4cc(F)c5nc(C)n(C(C)C)c5c4)n3)nc2)CC1 + CCn1c(-c2cc(N3CCN(C)CC3)cnc2C(C)OC)c2c3cc(ccc31)-c1csc(n1)CC(NC(=O)C1CC1C)C(=O)N1CCCC(N1)C(=O)OCC(C)(C)C2 , and I need its recorded viability, T/C.
Result: 41.4

Ask: I have this compound here, C=CC(=O)N1CCN(c2nc(OCC3CCCN3C)nc3c(F)c(-c4nc(N)cc(C)c4C(F)(F)F)c(Cl)cc23)C(C)C1 (centres undefined) + CCn1c(-c2cc(N3CCN(C)CC3)cnc2C(C)OC)c2c3cc(ccc31)-c1csc(n1)CC(NC(=O)C1CC1C)C(=O)N1CCCC(N1)C(=O)OCC(C)(C)C2 , and I need its recorded viability, T/C.
Result: 34.7

Ask: I have this compound here, CC(C)n1nc(-c2ccc3oc(N)nc3c2)c2c(N)ncnc21 + CCn1c(-c2cc(N3CCN(C)CC3)cnc2C(C)OC)c2c3cc(ccc31)-c1csc(n1)CC(NC(=O)C1CC1C)C(=O)N1CCCC(N1)C(=O)OCC(C)(C)C2 , and I need its recorded viability, T/C.
Result: 28.2

Others:
Ask: I have this compound here, O=C(c1ccc(F)c(F)c1Nc1ccc(I)cc1F)N1CC(O)([C@@H]2CCCCN2)C1 + CCn1c(-c2cccnc2C(C)OC)c2c3cc(ccc31)N1CCOC(CC(NC(=O)C(C(C)C)N(C)C(=O)C3(F)CCN(C(=O)C#CC(C)(C)N(C)C)CC3)C(=O)N3CCCC(N3)C(=O)OCC(C)(C)C2)C1 , and I need its recorded viability, T/C.
Result: 65.5
